- Target System: 17β-HSD10 (Homo sapiens)
- Construct: Histev (histidine tag with TEV site) (N, cleaved yes); made in house; host or cells: E. coli BL21-CodonPlus
- Sequence (Q99714 1-261): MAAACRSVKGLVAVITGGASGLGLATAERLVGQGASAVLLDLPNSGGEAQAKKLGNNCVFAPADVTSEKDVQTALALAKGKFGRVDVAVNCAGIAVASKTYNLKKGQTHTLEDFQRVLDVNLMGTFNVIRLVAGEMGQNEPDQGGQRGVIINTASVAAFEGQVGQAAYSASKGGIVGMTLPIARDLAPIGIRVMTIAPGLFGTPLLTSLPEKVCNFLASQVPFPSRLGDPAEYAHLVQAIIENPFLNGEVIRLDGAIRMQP
- Assay Summary: 17β-HSD10 (ABAD) enzyme inhibition assay, NADH oxidation read at 340 nm (primary screen and dose response)
- Type: biochemical
- Experimental Setup: recombinant 17βHSD10 enzyme assay, curve fit
Measurement Kind: Max. Fit

Compound	Target System	Max. Fit
COc1cc(-c2ccccc2[C@@H]2CCCN2C(=O)c2sccc2Cl)ccc1F (racemic)	17β-HSD10 (Homo sapiens)	96
CC(C)CN(C(=O)c1ccccc1F)c1cccc(N(C)Cc2nccn2C)c1	17β-HSD10 (Homo sapiens)	79
CC(C)CN(C(=O)c1ccccc1F)c1cccc(N(C)Cc2cccnc2)c1	17β-HSD10 (Homo sapiens)	82
O=C(c1sccc1Cl)N1CCC[C@H]1c1ccccc1-c1cccc(O)c1 (single isomer, unassigned)	17β-HSD10 (Homo sapiens)	93
Cc1ccsc1C(=O)N1CCC[C@H]1c1ccccc1-c1cccc(Cl)c1 [ESC1002321]	17β-HSD10 (Homo sapiens)	102
Cc1ccsc1C(=O)N1CCC[C@@H]1c1ccccc1-c1ccccc1	17β-HSD10 (Homo sapiens)	98
CC(C)CN(C(=O)c1ccccc1F)c1cccc(N(CCO)Cc2c[nH]cn2)c1	17β-HSD10 (Homo sapiens)	94
CC(C)CN(C(=O)c1ccccc1F)c1cccc(N(C)Cc2c[nH]nn2)c1	17β-HSD10 (Homo sapiens)	87
COc1ccc(-c2ccccc2[C@H]2CCCN2C(=O)c2sccc2C)cc1	17β-HSD10 (Homo sapiens)	98
O=C(c1sccc1Cl)N1CCC[C@H]1c1ccccc1-c1cc(O)ccc1F (single isomer, unassigned) [ESC1002843]	17β-HSD10 (Homo sapiens)	100
CCc1ccc(C(=O)N(CC(C)C)c2cccc(N(C)Cc3c[nH]cn3)c2)cc1	17β-HSD10 (Homo sapiens)	94
COc1cccc(-c2ccccc2[C@@H]2CCCN2C(=O)c2ncc[nH]2)c1 (racemic)	17β-HSD10 (Homo sapiens)	86
CC(C)CN(C(=O)C1CCCCC1)c1cccc(N(C)Cc2cnc[nH]2)c1	17β-HSD10 (Homo sapiens)	104
COc1ccc(-c2ccccc2[C@@H]2CCCN2C(=O)c2sccc2C)cc1 (single isomer, unassigned)	17β-HSD10 (Homo sapiens)	100
COc1cccc(-c2ccccc2[C@@H]2CCCN2C(=O)c2[nH]ncc2Cl)c1 (racemic) [ESC1002626]	17β-HSD10 (Homo sapiens)	91
CCCCN(C(=O)c1ccccc1F)c1cccc(N(C)Cc2c[nH]cn2)c1	17β-HSD10 (Homo sapiens)	96
Cc1ccsc1C(=O)N1CCC[C@@H]1c1ccccc1-c1ccn[nH]1	17β-HSD10 (Homo sapiens)	93

Data provenance is patent US20260132123A1.
